Entries and their melting point values follow.

NN=C(c1cccc(F)c1)c1cccc(F)c1; 35 to 36 °C
CC(C)c1ccc2cc(C(=O)Nc3ccc(OCC(C)(C)C)c(C#N)c3)sc2n1; 244 to 245 °C

Pending compound:
State its melting point for this compound: COc1cc(-c2cccc([N+](=O)[O-])c2)ccc1N 167 to 168 °C

---

Entries and their measured melting point follow.

Would you please look over these solved cases?
Cc1cc(O)c(C(=O)CCC(=O)O)cc1Cl; 181 to 182 °C
NC(=O)CCC(=O)Nc1c(C(=O)c2ccccc2)[nH]c2cc(Cl)ccc12; 258 to 263 °C

Give the value of melting point reported for the following: CC1(C)CC(CCCCNc2nc(Cl)nc(NCCCCC3CC(C)(C)NC(C)(C)C3)n2)CC(C)(C)N1 40 to 42 °C

Attribution: a melting point compilation (Tetko et al.; mined from patent text by program, amines drawn as free bases though some values may be those of a salt)
